Data origin: ChEMBL document CHEMBL4689842

Let's look at some compounds and their measured Population Fragmented Nuclei (%).
# Tested on: Fibroblast
# assay: Multiplex assay against human fibroblast
# Type: toxicity, cell-based
# conditionContext: 24 h, 10 µM, compound concentration 10 uM, replicate 1

| compound | Population Fragmented Nuclei (%) |
| --- | --- |
| CCN1CCN(Cc2ccc(Nc3ncc(F)c(-c4cc(F)c5nc(C)n(C(C)C)c5c4)n3)nc2)CC1.CS(=O)(=O)O | 45 |
| COc1ccc(S(=O)(=O)N(CCO)c2ccccc2CN(C)C/C=C/c2ccc(Cl)cc2)cc1.O=P(O)(O)O | 33 |
| CCN1CCN(c2ccc(Nc3cc(N(C)C(=O)Nc4c(Cl)c(OC)cc(OC)c4Cl)ncn3)cc2)CC1 | 26 |
| Cn1nc(C(F)(F)F)cc1-c1cnc(N2CCc3cc(S(=O)(=O)Nc4c(F)cc(Cl)cc4F)cc(N4CCCC4=O)c32)nc1 | 22 |
| CCOC(=O)c1c(C)[nH]c2ccc3c(c12)CN1CCc2cc(OC)ccc2C1O3 (stereo unspecified) | 27 |
| CCc1cccc(CC)c1NC(=O)c1nn(C)c2c1CCc1cnc(Nc3ccc(C(=O)NC4CCN(C)CC4)cc3OC(F)(F)F)nc1-2 | 25 |
| CCn1cc(-c2ccnc3[nH]c(-c4cccc(CN(C)C)c4)cc23)c(-c2ccc(NC(=O)N(C)C)cc2)n1 | 24 |
| CN1CCN(C(=O)C(C)(C)c2ccc(C(=O)Nc3cn4cc(-c5cc(C(C)(C)C)cc(C(C)(C)C)c5)ccc4n3)cc2)CC1 | 32 |
| C=C1/C(=C\C=C2/CCC[C@]3(C)[C@@H]([C@H](C)/C=C/[C@H](C)C(C)C)CC[C@@H]23)C[C@@H](O)C[C@@H]1O | 55 |
| O=C(Nc1ccc(-c2ccnc(Nc3ccc(N4CCOCC4)cc3)n2)cc1)[C@@H]1CCCN1 | 37 |
| NC(=O)c1cccc(-c2cc(Nc3ccc(OC(F)(F)F)cc3)ncn2)c1 | 26 |
| C=CCn1c(=O)c2cnc(Nc3ccc(N4CCN(C)CC4)cc3)nc2n1-c1cccc(C(C)(C)O)n1 | 30 |
| CCn1c(=O)c(-c2ccc(-c3cncs3)cc2Cl)cc2cnc(Nc3ccc(N4CCN(C)CC4)cc3)nc21 | 44 |
| CCOc1cc(C(=O)N2CCC(N3CCN(C)CC3)CC2)ccc1Nc1ncc2c(n1)N(C1CCCC1)c1ccccc1C(=O)N2C | 41 |
| CN1CCC(=C2c3ccccc3CC(=O)c3sccc32)CC1.O=C(O)/C=C/C(=O)O [KETOTIFEN FUMARATE] | 33 |
| Cl.Oc1ccc2c3c1O[C@H]1c4[nH]c5c(c4C[C@@]4(O)[C@@H](C2)N(CC2CC2)CC[C@]314)C[C@@]1(O)[C@H]2Cc3ccc(O)c4c3[C@@]1(CCN2CC1CC1)[C@H]5O4 | 18 |
| CN(C)C(=O)C(CCN1CCC(O)(c2ccc(Cl)cc2)CC1)(c1ccccc1)c1ccccc1.Cl [LOPERAMIDE HYDROCHLORIDE] | 26 |
| COc1cc(N2CCN(C)CC2)ccc1Nc1ncc2c(n1)N(C)c1ccccc1C(=O)N2C | 38 |
| CN1C2CCC1CC(OC(c1ccc(F)cc1)c1ccc(F)cc1)C2.Cl (stereo unspecified) | 38 |
| O=C(Nc1ccc(Cl)cc1)Nc1cccc(-c2cccc(N3CCCC3)n2)c1 | 17 |
| O=C(Nc1cccnn1)N1CCC(=Cc2cccc(Oc3ccc(C(F)(F)F)cn3)c2)CC1 | 28 |
| CNc1cc(Oc2cc(C(=O)Nc3cc(N4CCN(C)CC4)cc(C(F)(F)F)c3)ccc2C)ncn1 | 34 |
| Cc1ccc2nc(NCCN)c3ncc(C)n3c2c1.O=C(O)C(F)(F)F.O=C(O)C(F)(F)F | 35 |
| CCCS(=O)(=O)c1nc(NC2CC2)cc(-c2ccc3c(ccn3C3CC(C)(C)NC(C)(C)C3)c2)n1 | 38 |
| O=C(Cc1ccc(-c2ccc(OCCN3CCOCC3)cc2)cn1)NCc1ccccc1 | 42 |
| Cc1ccc(C(=O)Nc2cccc(C(F)(F)F)c2)cc1Nc1nc(-c2cccnc2)nc2c1cnn2C | 27 |
